# System name: Alpha1D (Homo sapiens)
# Construct: purchased NIMH Psychoactive Drug Screening Program (PDSP)
# Sequence (P25100 whole entry): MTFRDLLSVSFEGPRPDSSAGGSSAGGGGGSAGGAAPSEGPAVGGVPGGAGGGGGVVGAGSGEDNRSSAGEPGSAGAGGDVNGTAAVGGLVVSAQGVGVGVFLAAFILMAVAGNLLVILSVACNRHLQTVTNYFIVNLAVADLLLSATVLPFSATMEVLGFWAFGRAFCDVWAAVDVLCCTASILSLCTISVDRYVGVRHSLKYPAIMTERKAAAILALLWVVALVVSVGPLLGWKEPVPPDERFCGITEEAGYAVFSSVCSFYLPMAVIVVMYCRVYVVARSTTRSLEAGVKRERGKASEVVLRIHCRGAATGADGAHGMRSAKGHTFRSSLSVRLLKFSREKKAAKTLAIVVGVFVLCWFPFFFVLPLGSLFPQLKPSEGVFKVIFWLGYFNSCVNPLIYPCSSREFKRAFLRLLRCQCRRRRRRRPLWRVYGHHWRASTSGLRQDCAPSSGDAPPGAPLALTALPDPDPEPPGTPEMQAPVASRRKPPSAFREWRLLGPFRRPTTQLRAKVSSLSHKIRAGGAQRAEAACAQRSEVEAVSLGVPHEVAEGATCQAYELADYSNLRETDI
# Protocol: PDSP primary binding Alpha1D
# Experimental conditions: 1.5 h; primary binding, 10,000 nM; last figure of the line = mean of the 4 before it; read-out: Alpha1D, PDSP raw data, mean
# Method: To determine if any off-target receptor-binding effects are present, all the novel ligands were sent to the National Institute of Mental Health (NIMH), Psychoactive Drug Screening Program (PDSP). […] The hERG-binding was also determined. […] The binding of a ligand to a receptor, ion channel, or transporter was determined in the […] of 10 µM of the appropriate reference compound. […] Radioactivity was then counted on a Microbeta counter. […]
Endpoint label: inhibition at 10 µM (%)

{"Smiles string": "C#Cc1ccc2c(c1)C(c1ccccc1Cl)=N[C@H](C)c1c(C(=O)NC)ncn1-2", "System name": "Alpha1D (Homo sapiens)", "Recorded value": -5.53}
{"Smiles string": "C[C@H]1N=C(c2ccccc2F)c2cc(Cl)ccc2-n2cnc(-c3nc(C4CC4)no3)c21", "System name": "Alpha1D (Homo sapiens)", "Recorded value": -2.84}
{"Smiles string": "C#Cc1ccc2c(c1)C(c1ccccc1F)=N[C@H](C)c1c(C(=S)N(C)C)ncn1-2", "System name": "Alpha1D (Homo sapiens)", "Recorded value": 3.57}
{"Smiles string": "C#Cc1ccc2c(c1)C(c1ccccn1)=N[C@@H](C)c1c(C(=O)N(C)C)ncn1-2", "System name": "Alpha1D (Homo sapiens)", "Recorded value": -6.09}
